# Kd values compiled below
Biological target: T1, murine latent myostatin (mouse, UniProt O08689 25-267; O08689 268-376, Non-covalent complex of prodomain and growth factor; disulfide-linked homodimer, one copy of each chain is given.)
T1 construct: recombinant in BLI, endogenous in serum immunoprecipitation; also called Murine Latent GDF8; copies: 2 + 2
Assay: ForteBio BLI
A number alone suffices; assume nM.

Worked cases, answers included:
Kd lookup needed for Ab15 (antibody, V domains shown, Fully human antibody) VH: EVQLVQSGGGLVQPGRSLRLSCAASGFTFDDYAMHWVRQAPGKGLEWVSGISWNSGSIGYADSVKGRFTISRDNSKNTLYLQMNSLRAEDTAVYYCAKVDGLEYSSGHNFDYWGQGTLVTVSS VL: QSALTQPPSVSGSPGQSVTISCTGSSSDVGYYDHVSWYQHHPGRAPKVIIYDVTKRPSGVPDRFSGSKSGNTASLTISGLQAEDEADYYCSSYAGSYTWVFGGGTELTVLG , thanks.
11

May I ask what Kd has been recorded for Ab10 (antibody, V domains shown, also called anti-pro/latent GDF8 antibody, Ab10) VH: EVQLVQSGGGVVQSGRSLRLSCVASGFSFSNYGMHWVRQAPGKGLEWLAFIWYDGSNKWYADSVKGRFTISRDNSKNALYLQMNSLRAEDTAVYYCARDRYSSSWGGGFDYWGQGTVLTVSS VL: NFMLTQPHSVSESPGRTVTIPCSGRGGSIASDSVQWYQQRPGSAPTTIIYEDNQRPSGVPDRFSGSVDSSSNSASLTISGLRTEDEADYYCQSYDASSLWVFGGKTKLTVLG ?
4.2

Any idea what Kd was measured for Ab7 (antibody, V domains shown) VH: QVQLQQSGAEVKKPGASVKVSCKASGYTFTSYYMHWVRQAPGQGLEWMGIINPSGGSTSYAQKFQGRVTMTRDTSTSTVYMELSSLRSEDTAVYYCARESLIRFLEDPQQGGMDVWGQGTTVTVSS VL: QSALTQPASVSGSPGQSLTISCTGTSSDIGGYNYVSWYQQHPGKAPKLIIYDVTDRPSGVSGRFSGSKSGNTASLTISGLQTEDEAEYFCNSWTRSNNYIFGGGTKLTVLG ?
28.4

Consider now this further binder.
Which value of Kd has been reported for Ab11 (antibody, V domains shown, Fully human antibody) VH: QLQLQQSGGGLVKPGGSLRLSCAASGFTFSSYSMNWVRQAPGKGLEWVSSISSSSSYIYYADSVKGRFTISRDNAKNSLYLQMNSLRAEDTAVYYCVRDRHSLGDFDYWGQGTLVTVSS VL: SSELTQPSVSVSPGQTATITCSGDKLGDKYASWYQQKPGQSPVLVIYQDTKRPSGIPARFSGSNSGNTATLTISGTQAMDEAAYYCQAWDSTTVVFGGGTKLTVLG in the records?
1.8

// data source = patent US20260242455A1
